Test system: COG-LL-394h
Assay: selective drug sensitivity score (sDSS, relative to normal bone marrow) (sDSS (score)); higher = more potent and effective on the cell line relative to normal bone marrow cells;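 also: ALL cell lines in 384-well plates, five doses spanning 10,000-fold, each plate scaled between vehicle and 100 µmol/L benzalkonium chloride controls, sDSS an adapted area-under-curve metric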
Settings: 72 h
endpoint: selective drug sensitivity score
Simply state the number, no unit and no words.

COc1cccc2c1C(=O)c1c(O)c3c(c(O)c1C2=O)C[C@@](O)(C(=O)CO)C[C@@H]3O[C@H]1C[C@H](N)[C@H](O)[C@H](C)O1 [Doxorubicin] (top concentration 1000 nM) yielded selective drug sensitivity score of 7.18

COc1cc2c(Oc3ccc(NC(=O)C4(C(=O)Nc5ccc(F)cc5)CC4)cc3F)ccnc2cc1OCCCN1CCOCC1 [Foretinib] (top concentration 1000 nM) yielded selective drug sensitivity score of 1.84

CN1CC[C@H](c2c(O)cc(O)c3c(=O)cc(-c4ccccc4Cl)oc23)[C@H](O)C1 [Alvocidib] (top concentration 10000 nM) yielded selective drug sensitivity score of -2.5

CCc1nc(C(N)=O)c(Nc2ccc(N3CCC(N4CCN(C)CC4)CC3)c(OC)c2)nc1NC1CCOCC1 [Gilteritinib] (top concentration 1000 nM) yielded selective drug sensitivity score of 1.78

Nc1cc(COc2c(Cl)cc(C[C@H](N)C(=O)O)cc2Cl)c2oc(-c3ccccc3)nc2c1 [JPH203] (top concentration 5000 nM) yielded selective drug sensitivity score of 0

Nc1nc(N)c2nc(-c3cccc(O)c3)c(-c3cccc(O)c3)nc2n1 [TG100-115] (top concentration 10000 nM) yielded selective drug sensitivity score of -0.4

COc1cc(Nc2ncc(F)c(Nc3ccc4c(n3)N(COP(=O)(O)O)C(=O)C(C)(C)O4)n2)cc(OC)c1OC [Fostamatinib] (top concentration 2500 nM) yielded selective drug sensitivity score of -1.54

Nc1ncnc2c1nc(Cl)n2[C@@H]1O[C@H](CO)[C@@H](O)[C@H]1O [8-chloro-adenosine] (top concentration 50000 nM) yielded selective drug sensitivity score of 5.1

C[C@H]1CNCCCN1S(=O)(=O)c1cccc2cncc(F)c12 [Ripasudil] (top concentration 10000 nM) yielded selective drug sensitivity score of -0.22

---

System: P30-OHKUBO
Experiment: selective drug sensitivity score (sDSS, relative to normal bone marrow) (sDSS (score)); higher = more potent and effective on the cell line relative to normal bone marrow cells
Details: 72 h
Tag: yes if measured selective drug sensitivity score is not below 0.4, no if it is.

I'd appreciate it if you could say whether COc1cc2/c(=N/c3ccc(Br)cc3F)nc[nH]c2cc1OCC1CCN(C)CC1 [Vandetanib] (top concentration 1000 nM) has selective drug sensitivity score at least equal to 0.4. no

I'd appreciate it if you could say whether Oc1ccc2c(c1)CC[C@H](c1ccccc1)[C@@H]2c1ccc(OCCN2CCCC2)cc1 [Lasofoxifene] (top concentration 1000 nM) has selective drug sensitivity score at least equal to 0.4. no

I'd appreciate it if you could say whether Nc1nc(F)nc2c1ncn2[C@@H]1O[C@H](CO)[C@@H](O)[C@@H]1O [Fludarabine] (top concentration 10000 nM) has selective drug sensitivity score at least equal to 0.4. yes

I'd appreciate it if you could say whether Cc1cccc(-c2nn3c(c2-c2ccnc4ccc(C(N)=O)cc24)CCC3)n1 [Galunisertib] (top concentration 1000 nM) has selective drug sensitivity score at least equal to 0.4. yes

I'd appreciate it if you could say whether CS(=O)(=O)c1ccc(C(=O)Nc2ccc(Cl)c(-c3ccccn3)c2)c(Cl)c1 [Vismodegib] (top concentration 10000 nM) has selective drug sensitivity score at least equal to 0.4. no

I'd appreciate it if you could say whether COc1cc(N2CCC(N3CCN(C)CC3)CC2)ccc1Nc1ncc(Cl)c(Nc2ccccc2P(C)(C)=O)n1 [Brigatinib] (top concentration 1000 nM) has selective drug sensitivity score at least equal to 0.4. no

I'd appreciate it if you could say whether CCOC(=O)C1=CCCC[C@H]1S(=O)(=O)Nc1ccc(F)cc1Cl [Resatorvid] (top concentration 10000 nM) has selective drug sensitivity score at least equal to 0.4. no

---

System: HPB-ALL
Assay: selective drug sensitivity score (sDSS, relative to normal bone marrow) (sDSS (score)); higher = more potent and effective on the cell line relative to normal bone marrow cells
Details: 72 h
endpoint: selective drug sensitivity score
Simply state the number, no unit and no words.

Cc1cc(Nc2ncc(Cl)c(Nc3ccccc3S(=O)(=O)C(C)C)n2)c(OC(C)C)cc1C1CCNCC1 [Ceritinib] (top concentration 2500 nM) yielded selective drug sensitivity score of 1.86

NC(=S)N/N=C/c1ncccc1N [Triapine] (top concentration 10000 nM) yielded selective drug sensitivity score of 1.58

COc1ccc(S(=O)(=O)Nc2cccnc2Nc2ccc(O)cc2)cc1 [ABT-751] (top concentration 10000 nM) yielded selective drug sensitivity score of 13.2

---

Task for the reader: assign each of the following compounds its reported selective drug sensitivity score.
Test system: TMD5
Assay: selective drug sensitivity score (sDSS, relative to normal bone marrow) (sDSS (score)); higher = more potent and effective on the cell line relative to normal bone marrow cells
Conditions: 72 h
Simply state the number, no unit and no words.

Sample O=C(Nc1cc(Oc2cc(F)c(NC(=O)C3(C(=O)Nc4ccc(F)cc4)CC3)cc2F)ccn1)C1CC1 [Altiratinib] (top concentration 10000 nM) , system: TMD5. Its selective drug sensitivity score is 3.24

Sample O=c1[nH]c(C2CCCN2)nc2c1oc1ccc(Cl)cc12 (centres undefined) (top concentration 10000 nM) , system: TMD5. Its selective drug sensitivity score is -2.8

Sample CCCN(CCC)C(=O)C1=Cc2ccc(-c3ccc(C(=O)N4CCCC4)cc3)cc2N=C(N)C1 [Motolimod] (top concentration 10000 nM) , system: TMD5. Its selective drug sensitivity score is -3.48

Sample N#Cc1ccnc(N2C(=O)CC[C@H]2C(=O)N(c2cncc(F)c2)[C@H](C(=O)NC2CC(F)(F)C2)c2ccccc2Cl)c1 [Ivosidenib] (top concentration 10000 nM) , system: TMD5. Its selective drug sensitivity score is 1.8
